Values compiled from patent US8536210B2.

# assayed system: human recombinant VAP-1 (SSAO/VAP-1 enzyme) (Homo sapiens (Human), UniProt Q16853)
# Sequence (Q16853 whole entry): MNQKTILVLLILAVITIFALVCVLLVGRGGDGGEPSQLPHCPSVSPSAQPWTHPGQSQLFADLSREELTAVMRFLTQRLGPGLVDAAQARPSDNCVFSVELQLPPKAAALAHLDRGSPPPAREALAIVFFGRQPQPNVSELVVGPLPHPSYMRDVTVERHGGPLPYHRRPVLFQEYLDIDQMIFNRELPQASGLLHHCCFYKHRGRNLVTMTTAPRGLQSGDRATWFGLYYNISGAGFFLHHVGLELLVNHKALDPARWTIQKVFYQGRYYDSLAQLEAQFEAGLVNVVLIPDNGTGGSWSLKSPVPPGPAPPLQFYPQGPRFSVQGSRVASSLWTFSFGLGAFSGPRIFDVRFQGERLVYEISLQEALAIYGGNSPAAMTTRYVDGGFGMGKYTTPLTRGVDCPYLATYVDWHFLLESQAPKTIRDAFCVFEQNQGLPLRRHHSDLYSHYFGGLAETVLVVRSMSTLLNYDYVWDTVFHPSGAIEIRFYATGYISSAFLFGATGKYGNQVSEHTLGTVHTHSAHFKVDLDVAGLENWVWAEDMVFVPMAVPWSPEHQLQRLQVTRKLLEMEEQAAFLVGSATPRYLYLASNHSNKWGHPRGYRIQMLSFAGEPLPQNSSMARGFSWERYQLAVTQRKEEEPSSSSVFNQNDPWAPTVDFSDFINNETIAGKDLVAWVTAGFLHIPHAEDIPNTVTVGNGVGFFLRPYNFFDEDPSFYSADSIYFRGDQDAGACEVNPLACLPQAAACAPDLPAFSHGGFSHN
# measurement protocol: In vitro inhibition of SSAO activity on human recombinant VAP-1 (colorimetric, benzylamine substrate)
# Format: biochemical
# measurement setup: recombinant SSAO/VAP-1 in CHO cell homogenate, 1 mM benzyl amine
measurement kind: IC50 (µM)

[A] C=CCOc1ccc2c(c1C=NO)OCO2
[B] CSc1c(C=NO)c(=O)n(C)c(=O)n1C
[C] CCCOc1c(C=NO)c(=O)n(C)c(=O)n1C
Asked: Order all 3 entries above by recorded IC50, highest first, lowest last. The response must list the labels following the requested ordering.
Given back: A, B, C

[A] ON=CCCc1nc(-c2ccccc2)c(-c2ccccc2)o1
[B] CCSc1c(C=NO)c(=O)n(C)c(=O)n1C
[C] CCCSc1c(C=NO)c(=O)n(C)c(=O)n1C
[D] CCOc1ccc2c(c1C=NO)OCO2
Asked: In this exercise, place the 4 compounds in ascending sequence of their recorded IC50. The response must list the labels following the requested ordering.
Given back: A, D, C, B

[A] COc1cccc(C=NO)c1C
[B] C=CCN(C)c1c(C=NO)c(=O)n(C)c(=O)n1C
[C] ON=Cc1c(Br)ccc2c1OCO2
[D] ON=Cc1ccccc1-c1ccc2c(c1C=NO)OCO2
Asked: In this exercise, place the 4 compounds in ascending sequence of their recorded IC50. The response must list the labels following the requested ordering.
Given back: C, B, A, D

----------
# assayed system: human recombinant VAP-1 (SSAO/VAP-1 enzyme) (Homo sapiens (Human), UniProt Q16853)
# measurement protocol: In vitro inhibition of SSAO activity on human recombinant VAP-1 (colorimetric, benzylamine substrate)
# Assay type: biochemical
# measurement setup: recombinant SSAO/VAP-1 in CHO cell homogenate, 1 mM benzyl amine
measurement kind: IC50 (µM)

Past entries and their recorded results:
CCOc1c(C=NOC)c(=O)n(C)c(=O)n1C ... 29
ON=Cc1c(O)ccc2c1OCO2 ... 4.3
CCSc1c(C=NOC)c(=O)n(C)c(=O)n1C ... 113
Cn1c(Sc2ccccc2)c(C=NO)c(=O)n(C)c1=O ... 106
Cn1ncc(N2CCCCC2)c(/C=N/O)c1=O ... 240

[I] COc1c(C=NO)c(=O)n(C)c(=O)n1C
[II] COc1ccc(Cn2ncc(N3CCOCC3)c(/C=N/O)c2=O)cc1
Asked: Select one. Lower IC50: I or II // respond with label for picked entry
Given back: I
